# Lookup of reported hERG current change (%, negative = inhibition) at 10uM keyed by entry
assayed-target: human ether-à-go-go-related gene (hERG) potassium channel (human, UniProt Q12809)
Sequence (Q12809 whole entry, looked up): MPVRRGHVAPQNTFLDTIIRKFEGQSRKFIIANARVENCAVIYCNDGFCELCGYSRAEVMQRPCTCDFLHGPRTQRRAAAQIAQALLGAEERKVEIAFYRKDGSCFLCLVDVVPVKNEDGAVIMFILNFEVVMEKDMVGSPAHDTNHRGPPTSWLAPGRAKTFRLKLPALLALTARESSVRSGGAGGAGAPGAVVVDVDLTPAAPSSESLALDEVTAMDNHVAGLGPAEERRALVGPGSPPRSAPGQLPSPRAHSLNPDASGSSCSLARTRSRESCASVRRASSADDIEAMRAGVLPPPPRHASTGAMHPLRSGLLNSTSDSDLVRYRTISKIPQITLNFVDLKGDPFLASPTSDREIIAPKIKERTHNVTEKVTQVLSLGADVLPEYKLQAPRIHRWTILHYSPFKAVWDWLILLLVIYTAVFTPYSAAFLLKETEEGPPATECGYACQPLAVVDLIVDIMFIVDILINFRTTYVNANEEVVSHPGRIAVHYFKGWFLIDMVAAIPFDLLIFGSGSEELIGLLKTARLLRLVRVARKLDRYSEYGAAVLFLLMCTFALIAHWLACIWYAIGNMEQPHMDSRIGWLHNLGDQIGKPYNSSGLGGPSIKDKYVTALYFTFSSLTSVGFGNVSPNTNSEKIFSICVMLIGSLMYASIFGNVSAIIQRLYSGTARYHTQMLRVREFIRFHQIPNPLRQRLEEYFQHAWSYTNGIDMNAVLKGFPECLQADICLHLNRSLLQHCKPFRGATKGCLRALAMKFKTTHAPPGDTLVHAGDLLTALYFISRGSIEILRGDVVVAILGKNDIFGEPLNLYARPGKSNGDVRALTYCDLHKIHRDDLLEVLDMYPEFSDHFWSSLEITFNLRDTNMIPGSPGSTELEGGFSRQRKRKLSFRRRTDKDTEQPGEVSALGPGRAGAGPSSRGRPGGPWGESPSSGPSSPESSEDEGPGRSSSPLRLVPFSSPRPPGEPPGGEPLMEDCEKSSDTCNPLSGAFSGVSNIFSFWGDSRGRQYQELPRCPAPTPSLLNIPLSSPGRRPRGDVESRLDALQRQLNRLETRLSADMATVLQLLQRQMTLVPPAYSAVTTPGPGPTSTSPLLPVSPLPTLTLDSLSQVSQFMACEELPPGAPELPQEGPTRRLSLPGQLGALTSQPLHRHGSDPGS
protocol-description: primary screen, population patch clamp on CHO cells stably expressing hERG; higher = less effect of the substance
Among all 310,000 compounds or so, about 14,000 (4.5%) showed an effect of 50% or more. The effect is printed as a negative number. This is one part of a sample in which strong results are shown more often than they occur.
Use % as the unit, but write only the number.

compound | measure-unit | experimental-result
Cc1ccc2nsnc2c1S(=O)(=O)Nc1cccc2nsnc12 | % | -0.692
FC(F)(F)c1ccc(N2CCOCC2)c(Nc2nc3ccccc3n3cnnc23)c1 | % | 7.53
Cn1c(CCN2CCCC2)nc2cc(NS(=O)(=O)c3ccccc3)ccc21 | % | -40.9

Which measured hERG current change (%, negative = inhibition) at 10uM value corresponds to O=C(c1ccco1)N1CCN(Cc2cn[nH]c2-c2ccc(F)cc2F)CC1 ?
-12.8

Now the same for O=C(CCCN1C(=O)C2CC=CCC2C1=O)Nc1ccccc1F (stereo not shown)
1.61

====

assayed-target: human ether-à-go-go-related gene (hERG) potassium channel (human, UniProt Q12809)
protocol-description: primary screen, population patch clamp on CHO cells stably expressing hERG; higher = less effect of the substance
About 14,000 (4.5%) of roughly 310,000 compounds showed an effect of 50% or more. The effect is printed as a negative number. This is one part of a sample in which strong results are shown more often than they occur.
# Lookup of reported hERG current change (%, negative = inhibition) at 10uM keyed by entry
Use % as the unit, but write only the number.

Which measured hERG current change (%, negative = inhibition) at 10uM value corresponds to COc1cccc(C(=O)Nc2ccccc2F)c1 ?
8.37

====

assayed-target: human ether-à-go-go-related gene (hERG) potassium channel (human, UniProt Q12809)
protocol-description: primary screen, population patch clamp on CHO cells stably expressing hERG; higher = less effect of the substance
Among all 310,000 compounds or so, about 14,000 (4.5%) showed an effect of 50% or more. The effect is printed as a negative number. The list comes from a sample in which strong results are over-represented; it also holds close analogues and randomly drawn compounds.
experimental-readout: hERG current change (%, negative = inhibition) at 10uM (%)
Use % as the unit, but write only the number.

Below, 4 compounds whose answers are already recorded.
compound | measure-unit | experimental-result
CC(C)(O)C#Cc1ccc(C(=O)N2CCN(c3ccc(F)cc3)CC2)cc1 | % | -11.4
O=C(c1cc(C(=O)N2CCN(c3ccc(F)cc3)CC2)cc([N+](=O)[O-])c1)N1CCN(c2ccc(F)cc2)CC1 | % | -26.2
Cc1cc(C(=O)N/N=C/C=C/c2cccc([N+](=O)[O-])c2)n[nH]1 | % | -3.28
CC(=O)c1ccc(OCCCCOc2ccc(C(C)=O)cc2)cc1 | % | 21.4

Continue with the compound presented below.
Which measured hERG current change (%, negative = inhibition) at 10uM value corresponds to CCOC(=O)C1CCCN(C(=O)CN(c2ccc(OC)cc2)S(=O)(=O)c2c(C)noc2C)C1 (centres unmarked) ?
-4.08

====

assayed-target: human ether-à-go-go-related gene (hERG) potassium channel (human);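 note: peak tail current of the secondary pulse compared with the same well before compound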
protocol-description: primary screen, population patch clamp on CHO cells stably expressing hERG; higher = less effect of the substance
In all, about 310,000 compounds went through this assay and about 14,000 (4.5%) showed an effect of 50% or more. The effect is printed as a negative number. Only a selection was taken, and strong results are over-represented in it overall.
experimental-readout: hERG current change (%, negative = inhibition) at 10uM
Enter the number, and then the unit.

Below, 4 compounds whose answers are already recorded.
compound | experimental-result
COc1ccc(S(=O)(=O)NCC(c2cccnc2)N2CCN(C)CC2)cc1C (stereo not drawn) | -62.9%
CN(C)c1nc(N)c([N+](=O)[O-])c(NCc2ccccc2)n1 | 4.16%
CN(C)S(=O)(=O)c1ccc(C(=O)NCC2(N3CCOCC3)CCCCC2)cc1 | -9.69%
CN(C)S(=O)(=O)c1ccc(C(=O)NCC2(N3CCCCC3)CCCCC2)cc1 | -1.46%

Which measured hERG current change (%, negative = inhibition) at 10uM value corresponds to Cc1ccccc1C(=O)NCC(=O)NCC1(N2CCOCC2)CCCCC1 ?
-25.7%

Now the same for COc1ccccc1N1CCN(C(CNS(=O)(=O)c2ccc(C)cc2)c2cccnc2)CC1 (stereo not drawn)
-38.9%

====

assayed-target: human ether-à-go-go-related gene (hERG) potassium channel (human, UniProt Q12809);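 note: peak tail current of the secondary pulse compared with the same well before compound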
protocol-description: primary screen, population patch clamp on CHO cells stably expressing hERG; higher = less effect of the substance
In all, about 310,000 compounds went through this assay and about 14,000 (4.5%) showed an effect of 50% or more. Effects have a minus sign here. The sample holds strong results, similar compounds and a random draw of the others, so the mix is not that of the screen.
# Lookup of reported hERG current change (%, negative = inhibition) at 10uM keyed by entry
Use % as the unit, but write only the number.

Below, 3 compounds whose answers are already recorded.
compound | measure-unit | experimental-result
O=C(NC1CCCCC1)C(c1cccs1)N(C(=O)Cc1c[nH]c2ccccc12)c1ccc(F)cc1 (stereo not drawn) | % | 14.7
S=C(NCCN1CCCCC1)Nc1ccc(Br)cc1 | % | -69.1
CC(C)(C)CN1CCNC(=O)C1CC(=O)NCCc1ccccc1F (stereo not drawn) | % | 4.25

Continue with the compound presented below.
Give hERG current change (%, negative = inhibition) at 10uM (human ether-à-go-go-related gene (hERG) potassium channel (human, UniProt Q12809)) of the following compound: N#C/C(=C\c1cccnc1)C(=O)Nc1ccccc1
4.04

====

assayed-target: human ether-à-go-go-related gene (hERG) potassium channel (human);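 note: peak tail current of the secondary pulse compared with the same well before compound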
protocol-description: primary screen, population patch clamp on CHO cells stably expressing hERG; higher = less effect of the substance
In all, about 310,000 compounds went through this assay and about 14,000 (4.5%) showed an effect of 50% or more. The effect is printed as a negative number. The list comes from a sample in which strong results are over-represented; it also holds close analogues and randomly drawn compounds.
experimental-readout: hERG current change (%, negative = inhibition) at 10uM (%)
Use % as the unit, but write only the number.

compound | experimental-result
COc1ccccc1C(=O)OCC(=O)Nc1ccc(Cl)cn1 | 10.1
Cc1cccc(OCC(=O)N2CCN(C(=O)c3ccco3)CC2)c1 | -6.95
CCOC(=O)/C(=C\c1c[nH]c2ccccc12)NC(C)=O | 0.157
Cc1ccc2sc(N(CCCN(C)C)C(=O)c3ccc(S(=O)(=O)N(C)C4CCCCC4)cc3)nc2c1C.Cl | -8.13

Which measured hERG current change (%, negative = inhibition) at 10uM value corresponds to CCC(C)NC(=O)CCc1nc2ccccc2n1-c1ccccc1 (centres unmarked) ?
2.77

====

assayed-target: human ether-à-go-go-related gene (hERG) potassium channel (human);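 note: peak tail current of the secondary pulse compared with the same well before compound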
protocol-description: primary screen, population patch clamp on CHO cells stably expressing hERG; higher = less effect of the substance
About 14,000 (4.5%) of roughly 310,000 compounds showed an effect of 50% or more. The effect is printed as a negative number. The full list was thinned out, with strong results kept by preference.
experimental-readout: hERG current change (%, negative = inhibition) at 10uM (%)
Use % as the unit, but write only the number.

Below, 10 compounds whose answers are already recorded.
compound | experimental-result
CN1CCN(CCCNC(=O)c2cc3c(-c4ccc(Cl)cc4)nn(C)c3s2)CC1 | -40.1
CCN1CCN(CCC(=O)Nc2ccc(C)cc2)CC1.Cl | -8.34
O=C1NC(=S)N(c2ccc(Cl)cc2)C(=O)/C1=C/N1CCN(C(=O)c2ccco2)CC1 | 7.25
Cl.O=C(CCN1CCCC1)Nc1ccccc1 | 4.69
O=C(O)C(=O)O.OC(CNCc1ccc(Cl)cc1)COc1ccccc1 (centres unmarked) | -41.9
CC(C)(C)n1nnnc1CN(Cc1cccnc1)Cc1ccccc1Cl | -33
O=C(CCN1CCN(C/C=C/c2ccccc2)CC1)Nc1ccccc1 | -74.9
CCOc1cc(C(=O)N=c2sccn2C)cc(Br)c1OC | 8.84
CCCCN(CC)CCNC(=O)c1cc2c(-c3ccc(Cl)cc3)nn(C)c2s1 | -74.8
Cc1ccc(OCC(O)CNCc2ccccc2)cc1C (centres unmarked) | -33.5

Which measured hERG current change (%, negative = inhibition) at 10uM value corresponds to O=C(O)C(=O)O.O=C(c1ccccc1)c1ccc(OCC(O)CNCc2cccc(Cl)c2)cc1 (centres unmarked) ?
-60.3

Now the same for CCCCNC(=O)c1cc2c(-c3ccc(Cl)cc3)nn(C)c2s1
-7.09

Now the same for CCN1CCN(CCC(=O)Nc2cccc(C)c2)CC1.Cl
0.741

Now the same for C(=N\N1CCOCC1)/c1ccsc1.O=P(O)(O)O
18.8

Now the same for CC(C)(C)n1nnnc1C(c1cccs1)N(Cc1cccnc1)Cc1ccccc1Cl (centres unmarked)
-11.4

Now the same for O=C(CSc1nc(-c2ccccc2)nc2ccc(F)cc12)Nc1cccc(C(=O)O)c1
2.54

Now the same for COCCCNC(=O)c1cc2c(-c3ccc(Cl)cc3)nn(C)c2s1
-3.72
